Assay remarks: Selectivity ratio of Ki for guinea pig kappa opioid receptor to mouse mu opioid receptor
Measurement label: Ratio Ki

Here is how some molecules turned out for Ratio Ki.
CN1CC[C@]23c4c5ccc(O)c4O[C@H]2[C@]2(CC[C@@]3(O)[C@H]1C5)O[C@H]1CO[C@@H]3N1[C@H]2O[C@]31CC[C@@]2(O)[C@H]3Cc4ccc(O)c5c4[C@@]2(CCN3C)[C@H]1O5; 161
Oc1ccc2c(c1)[C@]13CCN(CC4CC4)[C@H](C2)[C@]1(O)CC[C@@]1(C3)O[C@H]2CO[C@@H]3N2[C@H]1O[C@]31CC[C@@]2(O)[C@H]3Cc4ccc(O)cc4[C@@]2(CCN3CC2CC2)C1; 11.2
CC(C)CN1CC[C@]23c4c5ccc(O)c4O[C@H]2[C@]2(CC[C@@]3(O)[C@H]1C5)O[C@H]1CO[C@@H]3N1[C@H]2O[C@]31CC[C@@]2(O)[C@H]3Cc4ccc(O)c5c4[C@@]2(CCN3CC(C)C)[C@H]1O5; 4.7
Oc1ccc2c3c1O[C@H]1[C@]4(CC[C@@]5(O)[C@@H](C2)N(CC2CC2)CC[C@]315)O[C@H]1CO[C@@H]2N1[C@H]4O[C@]21CC[C@@]2(O)[C@H]3Cc4ccc(O)c5c4[C@@]2(CCN3CC2CC2)[C@H]1O5; 5.73

Kindly review the next molecule as well.
Input: // returns reported Ratio Ki for input `Oc1ccc2c3c1O[C@H]1[C@]4(CC[C@@]5(O)[C@@H](C2)N(CC2CCC2)CC[C@]315)O[C@H]1CO[C@@H]2N1[C@H]4O[C@]21CC[C@@]2(O)[C@H]3Cc4ccc(O)c5c4[C@@]2(CCN3CC2CCC2)[C@H]1O5`
Output: 67.7
